Hello, the source for this data is patent US20240317708A1, in case you need it.

Reported logD is given for each of the following compounds.
# TEST_SUMMARY: Log D shake flask method (octanol / PBS pH 7.4, HPLC)
# Format: physicochemical
# EXPERIMENTAL_CONDITIONS: octanol/phosphate-buffered saline (PBS); octanol / PBS pH 7.4, shake flask

Ask | Determine its reported logD: CC(C)NC(=O)/C=C/CC[C@H](NC(=O)c1c[nH]c2ccccc12)C(=O)Nc1cccn(CC(=O)NC23CC(C2)C3)c1=O
Reply | < 1

Ask | Note down logD recorded for COC(=O)/C=C/CC[C@H](NC(=O)c1ccnn1C)C(=O)Nc1cccn(CC(=O)NC23CC4(C)CC(C)(CC(C)(C4)C2)C3)c1=O
Reply | 3 to 5

Ask | Quick one: give measured logD for COC(=O)/C=C/CC[C@H](NC(=O)c1oc2ccccc2c1C)C(=O)Nc1cccn(CC(=O)NC23CC4CC(CC(C4)C2)C3)c1=O
Reply | 3 to 5

Ask | Dear colleague, please send me the reported logD for COC(=O)/C=C/CC[C@H](NC(=O)c1ccc2ccoc2c1)C(=O)Nc1cccn(CC(=O)NC2C3CC4CC2CC(C(N)=O)(C4)C3)c1=O (stereo partly shown) when you can.
Reply | 1 to 3

Ask | Assign logD to the following record: COC(=O)/C=C/CC[C@H](NC(=O)c1ccnn1C)C(=O)Nc1cccn(CC(=O)N[C@@H]2C[C@H]3CC[C@@H]2C3)c1=O
Reply | 1 to 3

New cases:
Ask | Hello, please tell me recorded logD for this one: C=CCNC(=O)/C=C/CC[C@H](NC(=O)c1ccc2cnccc2n1)C(=O)Nc1cccn(CC(=O)NC23CC(C2)C3)c1=O
Reply | < 1

Ask | Return the recorded logD value; entry: COC(=O)/C=C/CC[C@H](NC(=O)c1cc(C(=O)OC)cc([N+](=O)[O-])c1)C(=O)Nc1cccn(CC(=O)NC2C3CC4CC(C3)CC2C4)c1=O (stereo partly shown)
Reply | 3 to 5

Ask | State, in one line, measured logD of COC(=O)/C=C/CC[C@H](NC(=O)c1oc2ccccc2c1C)C(=O)Nc1cccn(CC(=O)N(C)C23CC4CC(CC(C4)C2)C3)c1=O
Reply | 3 to 5

Ask | Note down logD recorded for COC(=O)/C=C/CC[C@H](NC(=O)c1ccnn1C)C(=O)Nc1cccn(CC(=O)N[C@H]2C[C@H]3CC[C@]2(C)C3(C)C)c1=O
Reply | 1 to 3

Ask | Specify logD for COC(=O)/C=C/CC[C@H](NC(=O)c1cc2cc(Br)ccc2s1)C(=O)Nc1cccn(CC(=O)NC2C3CC4CC(C3)CC2C4)c1=O (stereo partly shown) and stop.
Reply | 3 to 5

Ask | Write down logD measured for item COC(=O)/C=C/CC[C@H](NC(=O)c1cc2cccc(F)c2s1)C(=O)Nc1cccn(CC(=O)NC2C3CC4CC(C3)CC2C4)c1=O (stereo partly shown)
Reply | 3 to 5

Ask | Let me know recorded logD for O=C(/C=C/CC[C@H](NC(=O)c1cnc2ccc(OC(F)(F)F)cc2c1O)C(=O)Nc1cccn(CC(=O)NC23CC(C2)C3)c1=O)NC1CC1 , thanks.
Reply | 3 to 5

Ask | Specify reported logD for the compound shown: COC(=O)/C=C/CC[C@H](NC(=O)c1cc(Cl)sc1Cl)C(=O)Nc1cccn(CC(=O)NC23CC4CC(C)(CC(C)(C4)C2)C3)c1=O
Reply | 3 to 5
